test: Cellular uptake in mouse DA-3 cell lysosome at 10 uM after 30 mins by LysoTracker green staining-based confocal microscopic analysis relative to control; assay type: ADME; details: da-3, 0.5 h
READOUT KIND: Drug uptake
The reply must contain the numeric value and, after it, the unit.

Q: Answer with the recorded Drug uptake of `COc1cccc2c1C(=O)c1c(O)c3c(c(O)c1C2=O)C[C@@](O)(C(C)=O)C[C@@H]3O[C@H]1C[C@H](N)[C@H](O)[C@H](C)O1` only.
A: 83.19%

Q: Answer with the recorded Drug uptake of `COc1cccc2c1C(=O)c1c(O)c3c(c(O)c1C2=O)C[C@@](O)(C(=O)CO)C[C@@H]3O[C@H]1C[C@H](N)[C@H](O)[C@H](C)O1` only.
A: 27.55%

Q: Answer with the recorded Drug uptake of `CC(=O)[C@]1(O)Cc2c(O)c3c(c(O)c2[C@@H](O[C@H]2C[C@H](N)[C@H](O)[C@H](C)O2)C1)C(=O)c1ccccc1C3=O` only.
A: 83.2%
